target: D(2) dopamine receptor (Rattus norvegicus, UniProt P61169); assay: Compound was evaluated for its affinity (pKi) to inhibit [3H]spiperone binding to the dopamine receptor D2
Sequence (P61169 whole entry): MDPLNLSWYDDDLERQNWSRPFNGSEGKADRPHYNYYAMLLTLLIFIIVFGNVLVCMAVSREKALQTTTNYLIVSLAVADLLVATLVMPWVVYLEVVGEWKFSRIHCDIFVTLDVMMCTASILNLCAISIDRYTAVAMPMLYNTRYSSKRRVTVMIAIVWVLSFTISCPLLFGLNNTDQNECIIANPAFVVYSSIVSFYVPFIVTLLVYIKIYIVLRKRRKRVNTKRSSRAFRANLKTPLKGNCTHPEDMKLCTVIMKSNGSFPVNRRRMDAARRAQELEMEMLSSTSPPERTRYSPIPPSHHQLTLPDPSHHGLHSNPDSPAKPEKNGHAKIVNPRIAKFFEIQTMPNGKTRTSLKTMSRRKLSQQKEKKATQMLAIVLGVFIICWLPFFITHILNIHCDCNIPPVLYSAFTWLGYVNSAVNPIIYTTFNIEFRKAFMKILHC
Observation type: Ki (nM)
Unit nM implied. Number only.

O=C1CC(CN2CCC(O)(c3ccccc3)CC2)Cc2ccccc21 (configuration not stated)
74.1

We now examine a further molecule.
Q) Hello, please tell me recorded Ki for this one: O=C(CCCN1CCN(CC2CC(=O)c3ccc(F)cc3C2)CC1)c1ccc(F)cc1 (configuration not stated)
A) 77.6

====

biological target: D(1A) dopamine receptor (Rattus norvegicus, UniProt P18901); test: Compound was evaluated for its affinity (pKi) to inhibit [3H]SCH-23390 binding to the dopamine receptor D1
Sequence (P18901 whole entry): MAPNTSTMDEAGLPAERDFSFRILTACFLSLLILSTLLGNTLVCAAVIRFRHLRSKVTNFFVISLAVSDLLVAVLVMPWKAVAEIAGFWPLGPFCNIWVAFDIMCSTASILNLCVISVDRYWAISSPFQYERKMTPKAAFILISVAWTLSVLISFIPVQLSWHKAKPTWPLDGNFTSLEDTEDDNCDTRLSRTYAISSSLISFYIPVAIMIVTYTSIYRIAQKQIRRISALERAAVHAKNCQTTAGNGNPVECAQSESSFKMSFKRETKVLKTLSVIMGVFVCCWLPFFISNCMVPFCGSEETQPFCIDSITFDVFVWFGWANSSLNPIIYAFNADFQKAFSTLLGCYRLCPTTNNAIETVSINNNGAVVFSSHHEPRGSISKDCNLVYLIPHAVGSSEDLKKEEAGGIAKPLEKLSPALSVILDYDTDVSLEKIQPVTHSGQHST
Observation type: Ki (nM)
Number only, in nM; omit the unit.

O=C1CC(CN2CCC(O)(c3ccccc3)CC2)Cc2ccccc21 (stereo not given)
741
COc1ccccc1N1CCN(CC2CC(=O)c3ccccc3C2)CC1 (stereo not given)
1350
O=C(CCCN1CCN(CC2CC(=O)c3ccc(F)cc3C2)CC1)c1ccc(F)cc1 (stereo not given)
912
O=C1CC(CN2CCC(C(=O)c3ccc(F)cc3)CC2)Cc2ccccc21 (stereo not given)
324

Please find the next compound below.
Q) Fill in: Ki on D(1A) dopamine receptor (Rattus norvegicus, UniProt P18901), entry O=C(CCCN1CCN(CC2CC(=O)c3ccccc3C2)CC1)c1ccc(F)cc1 (stereo not given)
A) 380

====

organism: Rattus norvegicus; test: Compound was evaluated for the pA2 values against Dopamine (DA)-induced contraction of isolated rat vas deferens.; type: functional, organism-based; settings: read-out: pA2 (converted)
Observation type: Kb
Record the result as number plus unit.

Worked cases, Kb given:
O=C1CC(CN2CCC(C(=O)c3ccc(F)cc3)CC2)Cc2ccccc21 (centres undefined)
35.5 nM
COc1ccccc1N1CCN(CC2CC(=O)c3ccccc3C2)CC1 (centres undefined)
66.1 nM

Q) Please indicate Kb recorded for O=C(CCCN1CCC(O)(c2ccc(Cl)cc2)CC1)c1ccc(F)cc1
A) 39.8 nM

Q) Give the measured Kb for O=C(CCCN1CCN(CC2CC(=O)c3ccccc3C2)CC1)c1ccc(F)cc1 (centres undefined)
A) 53.7 nM

====

species: Mus musculus; assay: Compound was evaluated for the effective dose that causes lethality in aggregated mice (group toxicity antagonism); assay type: organism-based; conditions: in vivo
Observation type: ED50 (mg/kg)
// note: answer is a bare numeric in mg/kg

Field: example entries. Status: answers known.
O=C1CC(CN2CCC(C(=O)c3ccc(F)cc3)CC2)Cc2ccccc21 (centres undefined)
0.055
COc1ccccc1N1CCN(CC2CC(=O)c3ccccc3C2)CC1 (centres undefined)
0.349
O=C(CCCN1CCC(O)(c2ccc(Cl)cc2)CC1)c1ccc(F)cc1
0.02

Continue with the next compound.
Q) Note ED50 for the compound shown: O=C(CCCN1CCN(CC2CC(=O)c3ccc(F)cc3C2)CC1)c1ccc(F)cc1 (centres undefined)
A) 0.053
